Quick reference: viability, T/C of the listed items.
Tested on: LG0703-F948-PDC complex spheroid viability
procedureText: Anticancer human tumor LG0703-F948-PDC patient-derived lung adenocarcinoma cell line growth inhibition
appliedConditions: second compound 10 µM; first compound 0.0316 µM; active compounds read low
Reply with just the number (in %).

Write down viability, T/C measured for item O=C(c1cc(Cc2n[nH]c(=O)c3ccccc23)ccc1F)N1CCN(C(=O)C2CC2)CC1 + NC1CCC(NC2CC2c2ccccc2)CC1 109

Write down viability, T/C measured for item CC1COCCN1c1cc(C2(S(C)(=N)=O)CC2)nc(-c2ccnc3[nH]ccc23)n1 (configuration not stated) + NC1CC1c1ccc(-c2cccc(O)c2)cc1 96.5

Write down viability, T/C measured for item CC(C)CC(NC(=O)CNC(=O)c1cc(Cl)ccc1Cl)B1OC(=O)CC(CC(=O)O)(C(=O)O)O1 (configuration not stated) + NC1CC1c1ccc(-c2cccc(O)c2)cc1 0.14

Write down viability, T/C measured for item CC(C)CC(NC(=O)C(Cc1ccccc1)NC(=O)c1cnccn1)B(O)O (configuration not stated) + NC1CC1c1ccc(-c2cccc(O)c2)cc1 0.9

Write down viability, T/C measured for item COc1cc(Nc2ncc3c(n2)-c2ccc(Cl)cc2C(c2c(F)cccc2OC)=NC3)ccc1C(=O)O + NC1CCC(NC2CC2c2ccccc2)CC1 89.9

Write down viability, T/C measured for item CC1COCCN1c1cc(C2(S(C)(=N)=O)CC2)nc(-c2ccnc3[nH]ccc23)n1 (configuration not stated) + NC1CCC(NC2CC2c2ccccc2)CC1 131

Write down viability, T/C measured for item O=C(C=Cn1cnc(-c2cc(C(F)(F)F)cc(C(F)(F)F)c2)n1)NNc1cnccn1 + NC1CC1c1ccc(-c2cccc(O)c2)cc1 64.2

###

System: LG0703-F948-PDC complex spheroid viability
procedureText: Anticancer human tumor LG0703-F948-PDC cell line growth inhibition; active = viability on the fitted dose curve at most 10% of control; inactive = the rest;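 also: spheroids exposed to agents for seven days before readout; 100% = DMSO vehicle control wells as normalization base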
appliedConditions: second compound 3.16 µM; first compound 1 µM
One label from this list, please: active, inactive

How did this test come out for CC1(C)CCC(CN2CCN(c3ccc(C(=O)NS(=O)(=O)c4ccc(NCC5CCOCC5)c([N+](=O)[O-])c4)c(Oc4cnc5[nH]ccc5c4)c3)CC2)=C(c2ccc(Cl)cc2)C1 + NC1CCC(NC2CC2c2ccccc2)CC1 ? inactive

How did this test come out for CC(C)c1c(-c2ccccc2)nc2c(C#N)c[nH]n2c1=O + NC1CCC(NC2CC2c2ccccc2)CC1 ? inactive

How did this test come out for COc1ccc([C@@H](O)c2cc(-c3ncnc4cc(N5CCOCC5)ccc34)c(F)cc2Cl)nn1 + NC1CCC(NC2CC2c2ccccc2)CC1 ? inactive

How did this test come out for CC1COCCN1c1cc(C2(S(C)(=N)=O)CC2)nc(-c2ccnc3[nH]ccc23)n1 (configuration not stated) + NC1CC1c1ccc(-c2cccc(O)c2)cc1 ? inactive

How did this test come out for CC1COCCN1c1cc(-c2ccnn2C)c2ccnc(-c3ccn[nH]3)c2n1 (configuration not stated) + NC1CCC(NC2CC2c2ccccc2)CC1 ? inactive

How did this test come out for Nc1ncn(C2CC(O)C(CO)O2)c(=O)n1 (configuration not stated) + NC1CCC(NC2CC2c2ccccc2)CC1 ? inactive

How did this test come out for COc1cc(Nc2ncc3c(n2)-c2ccc(Cl)cc2C(c2c(F)cccc2OC)=NC3)ccc1C(=O)O + NC1CCC(NC2CC2c2ccccc2)CC1 ? active
